Please provide measured IC50 for the entries that follow.
system: P. falciparum male gametocytes; experiment: P. falciparum Dual Gamete Formation Assay (PfDGFA), male readout (exflagellation); assay type: cell-based, Plasmodium falciparum NF54; details: this study; read-out: Pf DGFA IC50 MALE
Answers are plain numbers, in µM.

Previously resolved entries follow.
Cc1cccc2nc(-c3ccc(-c4cccc(CNCCN5CCNCC5)c4)cc3)[nH]c12.O=C(O)C(F)(F)F :: 1.87
CN1CCN(c2ccc(Nc3c4ccccc4nc4ccccc34)cc2)CC1 :: 0.59
C=CCN(C(=O)c1ccc(Cl)c([N+](=O)[O-])c1)c1nc(-c2ccccc2)cs1 :: 0.4
COc1ccc2nc(N=C3NC4(c5ccccc5)NC(=Nc5nc6ccc(OC)cc6[nH]5)NC4(c4ccccc4)N3)[nH]c2c1.O=C(O)C(F)(F)F (stereo not shown) :: 1.16
Cc1ccc(C)c(S(=O)(=O)NCC2CCN(Cc3ccc(O)cc3)CC2)c1.O=C(O)C(F)(F)F :: 1.49

Give one value of IC50 per listed compound.
1. COc1ccc(Nc2ncc(C#N)c(Nc3ccccc3C(N)=O)n2)cc1N1CCN(C)CC1.Cl
2. CCN(CC)CCN(Cc1ccc(-c2ccc(C(F)(F)F)cc2)cc1)C(=O)Cn1cc(Cc2cnn(C)c2)c(=O)nc1/C=C/c1ccc(F)cc1.O=C(O)C(O)C(O)C(=O)O
3. N=C(N)NCCN(Cc1ccccc1)c1ccc(Cl)cc1
4. CNC(=O)c1ccccc1Nc1nc(Nc2ccc(N3CCN(C)CC3)nc2)ncc1C.Cl
5. COCCN(C)CCCOc1cc2c(cc1OC)ncn2-c1cc(OCc2ccccc2C(F)(F)F)c(C(N)=O)s1.Cl
6. COc1ccc(Nc2ncc(Cl)c(Nc3cccnc3C(N)=O)n2)cc1N1CCN(C)CC1.Cl
7. CN1CCN(c2ccc(Nc3ncc(Cl)c(Nc4cccnc4C(N)=O)n3)cc2)CC1.Cl
8. Cc1cccc(Nc2nc(N[C@@H]3CCCNC3)nc3cc[nH]c(=O)c23)c1.O=C(O)C(F)(F)F

Given back:
0.1
0.85
0.67
0.25
0.62
0.4
0.46
0.21

====

test system: HepG2 cells; test: HepG2 cytotoxicity counter-screen; settings: mean of the HepG2 TOX50 values
Measured attribute: Mean TOX (µM)
Answers are plain numbers, in µM.

COc1ccc2nc(-c3cc(-c4ccc(NC(C)=O)cc4)cnc3N)[nH]c2c1 :: 7.55

Give one value of Mean TOX per listed molecule.
1. CC(C)S(=O)(=O)N1CCN(Cc2ccc3c(c2)nc(NC(=O)c2ccsc2)n3C[C@H](O)c2ccccc2)CC1
2. C=CCN(C(=O)c1ccc(Cl)c([N+](=O)[O-])c1)c1nc(-c2ccccc2)cs1
3. CN(C)CCNCc1cccc(-c2ccc3c(Nc4ccc(Oc5ccccn5)cc4)ccnc3c2)c1
4. COc1ccc2nc(N=C3NC4(c5ccccc5)NC(=Nc5nc6ccc(OC)cc6[nH]5)NC4(c4ccccc4)N3)[nH]c2c1.O=C(O)C(F)(F)F (stereo not drawn)
5. COc1ccc(Nc2ncc(C#N)c(Nc3ccccc3C(N)=O)n2)cc1N1CCN(C)CC1.Cl
6. Cc1ccc(C(C(=O)Nc2ccc(N3CCNCC3)c(Cl)c2)c2ccccc2)cc1 (stereo not drawn)
7. CCCCNS(=O)(=O)c1ccc(NC(=O)c2cc([N+](=O)[O-])ccc2Cl)cc1

Given back:
8.48
50.86
6.62
48.12
8.95
11.61
100.00

====

system: HepG2 cells; assay: HepG2 cytotoxicity counter-screen; conditions: cytotoxic activity against HepG2 cells
Please provide measured Tox50 for the entries that follow.

Previously resolved entries follow.
O=C(Nc1cccc(-c2nn3ncccc3c2-c2ccnc(Nc3cccc(-c4cnco4)c3)n2)c1)c1c(F)cccc1F :: 1.85 µM
COc1cc2ccccc2c(OC)c1CNCCCCCCNCc1c(OC)cc2ccccc2c1OC.CS(=O)(=O)O :: 3.59 µM
COc1ccc(CNC2CCN(C)CC2)cc1-c1ccc(S(=O)(=O)NCc2ccccc2)c(F)c1.O=C(O)C(F)(F)F :: 3.59 µM

// moving on: another record for Tox50
Asked: Given the molecule CN(C)c1ccnc2ccc(NC(=O)Nc3ccnc4ccccc34)cc12 , what is its reported Tox50?
Given back: 22.68 µM

====

tested on: P. falciparum male gametocytes; assay: P. falciparum Dual Gamete Formation Assay (PfDGFA), male readout (exflagellation); format: cell-based, Plasmodium falciparum NF54; details: 2µM, 24h preincubation with gametocytes; replicate R1
Please provide measured % inhibition male (individual replicates) R1 for the entries that follow.
Answers are plain numbers, in %.

Give one value of % inhibition male (individual replicates) R1 per listed compound.
1. C#CCOc1ccc2ccccc2c1CNCCCCCCNCc1c(OCC#C)ccc2ccccc12.CS(=O)(=O)O
2. COc1ccc2c(CNCCCCCCNCc3c(OC)ccc4cc(OC)ccc34)c(OC)ccc2c1.CS(=O)(=O)O

Given back:
1. 98.4
2. 98.2

Give one value of % inhibition male (individual replicates) R1 per listed compound.
1. CC(=NNC(=S)NC(C)(C)C)c1ccccn1
2. Cl.Clc1ccc(OCCC2CCN(CCCCCCCN3CCC(CCOc4ccc(Cl)c(Cl)c4)CC3)CC2)cc1Cl

Given back:
1: 99.9; 2: 93.1

====

system: P. falciparum female gametocytes; assay: P. falciparum Dual Gamete Formation Assay (PfDGFA), female readout (Pfs25-positive female gametes); format: cell-based, Plasmodium falciparum NF54; conditions: PfDGFA, 24 h incubation with gametocytes before induction, female gamete readout; read-out: Female IC50
Measured attribute: pIC50
Give bare numbers, as −log10 of the molar value.

COc1ccc(C[C@H](N)C(=O)N[C@H]2[C@@H](O)[C@H](n3cnc4c(N(C)C)ncnc43)O[C@@H]2CO)cc1.Cl [TCMDC-123927] :: 5.40
CCCCOc1ccc(CNCCCCCCNCc2ccc(OCCCC)c3ccccc23)c2ccccc12.CS(=O)(=O)O [TCMDC-137281] :: 6.26

// moving on: another record for pIC50
Asked: Given the molecule C=CC(C)C1OC(=O)c2cc(OC)cc(OC)c21 (stereo not drawn) [TCMDC-138676] , what is its reported pIC50?
Given back: 5.94

====

Tested on: P. falciparum female gametocytes
Experiment: P. falciparum Dual Gamete Formation Assay (PfDGFA), female readout (Pfs25-positive female gametes)
Format: cell-based, Plasmodium falciparum NF54
Details: 2µM, 24h preincubation with gametocytes; replicate R4
Procedure: […] The Pf DGFA was performed as described in Delves et al. 2016 [17]. […] Exflagellation was recorded by capturing 10 frames over 1 s under brightfield illumination using a x4 objective with a 1.5x zoom (effectively x6) attached to an automated Nikon Ti fluorescence microscope. […] The plates were then returned to the microscope and female gametes imaged at x6 using fluorescence microscopy. […]
Output yes for % inhibition female (individual replicates) R4 not less than 70%; output no otherwise.

Some solved cases for reference:
COc1ccc2ccc(OC)c(CNCCCCCCNCc3c(OC)ccc4ccc(OC)cc34)c2c1.CS(=O)(=O)O :: no
COc1ccc2c(CNCCCCCCNCc3c(OC)ccc4cc(OC)ccc34)c(OC)ccc2c1.CS(=O)(=O)O :: yes

Asked: % inhibition female (individual replicates) R4 >= 70% for Cc1c(Cn2nc(Cl)c(N3CCNCC3)cc2=O)cccc1NC(=O)Nc1ccc(-c2ccccc2)cc1.O=C(O)C(F)(F)F ?
Given back: no

Asked: Now the compound COc1ccc(CCNCCCCCCNCCc2ccc(-c3ccccc3)cc2)cc1OC.Cl
Given back: no

Asked: Now the compound CCN(CC)CC(O)CNc1c2ccc([N+](=O)[O-])cc2nc2cc(OC)c(OC)cc12.Cl (stereo not shown)
Given back: no

Asked: Now the compound CN(C)CCCOc1ccc(CN2CCC(c3c[nH]c4ccc(NCC5CCCCC5)cc34)CC2)cc1.O=C(O)C(F)(F)F
Given back: yes

Asked: Now the compound CNC(=O)c1ccccc1Nc1nc(Nc2cccc(CS(C)(=O)=O)c2)ncc1C.O=CO
Given back: no

Asked: Now the compound CS(=O)(=O)O.FC(F)(F)COc1c(CCNCCCCNCCc2ccc3ccccc3c2OCC(F)(F)F)ccc2ccccc12
Given back: yes

Asked: Now the compound Cc1ccc(Cn2nc(Cl)c(N3CCNCC3)cc2=O)cc1NC(=O)Nc1ccc(-c2ccccc2)cc1.O=C(O)C(F)(F)F
Given back: no

Asked: Now the compound CS(=O)(=O)O.FC(F)(F)COc1ccc(CCNCCCCNCCc2ccc(OCC(F)(F)F)c3ccccc23)c2ccccc12
Given back: no

Asked: Now the compound CC(=NNC(=S)Nc1ccccc1Cl)c1ccccn1
Given back: yes

Asked: Now the compound C=CC(C)C1OC(=O)c2cc(OC)cc(OC)c21 (stereo not shown)
Given back: yes

Asked: Now the compound COc1cc2ccccc2cc1CCNCCCCNCCc1cc2ccccc2cc1OC.CS(=O)(=O)O
Given back: yes

Asked: Now the compound CCCc1cc2c3c(N)nc(N)nc3ccc2n1CC
Given back: yes

Asked: Now the compound COc1cc(Nc2nccc(-c3c(-c4cccc(NC(=O)c5c(F)cccc5F)c4)nn4ncccc34)n2)cc(OC)c1OC
Given back: no
